Each entry below carries its reported Relative binding affinity.
target: human somatostatin receptor subtype SSTR5 (human) (UniProt P35346); test: FACS, transfected HEK-293 cells
Sequence (P35346 whole entry): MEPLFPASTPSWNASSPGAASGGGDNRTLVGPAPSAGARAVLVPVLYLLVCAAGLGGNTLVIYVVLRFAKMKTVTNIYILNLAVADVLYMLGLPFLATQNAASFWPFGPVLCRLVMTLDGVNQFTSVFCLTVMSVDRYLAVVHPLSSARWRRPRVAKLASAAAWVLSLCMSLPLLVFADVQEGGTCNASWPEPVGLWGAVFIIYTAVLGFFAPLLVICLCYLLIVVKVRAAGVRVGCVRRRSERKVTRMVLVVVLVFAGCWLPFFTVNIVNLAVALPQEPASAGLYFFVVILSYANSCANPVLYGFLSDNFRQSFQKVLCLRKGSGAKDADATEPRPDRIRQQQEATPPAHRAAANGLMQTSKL
*1 amine or outer side, *2 acyl side, *3 side chain or, on linkers, in order; H or OH if unused. Bridges are numbered along the chain shown (N, C = ends). Primed or numbered codes have the meaning given here. [ ]: non-standard residue; d: D form. N(2-mercaptoethyl)Gly = O=C(CN(CCS[*:3])[*:1])[*:2]; FITC′ = fluorescein isothiocyanate; Orn = NCCC[C@H](N)C(=O)O; GABA = NCCCC(=O)O
Report the figure in % without appending any unit label.

INSERT INTO results (binder, unit_abbreviation, reading) VALUES
  ('{FITC′-GABA}-[dF]CFW[dW]RTF[N(2-mercaptoethyl)Gly]-NH2 (disulfide 2-9) [Compound 15]', '%', 7.5),
  ('XCFWXXTFX (FITC-GABA-DPhe-Cys*-Phe-Trp-DTrp-HomoLys-Thr-Phe-GlyS2*-NH2 (* = S-S bond; HomoLys = homolysine; GlyS2 = N-thioethyl glycine; C-terminal amide)) [Compound 16]', '%', 7);

Please turn your attention to the following entry.
Noted for {FITC′-GABA}-[dF]CY[dW][Orn]TF[N(2-mercaptoethyl)Gly]-NH2 (disulfide 2-8) [Compound 7] : its Relative binding affinity reads 1
